Test system: primary keratinocytes
TEST_DETAILS: % change in live cells vs DMSO control; higher = less cytotoxic
CONDITION_SUMMARY: 0.740741 µM; donor: 3; time (h post treatment): 20
READOUT_NAME: % change in live cells (%)

* O=C(Nc1ccc([N+](=O)[O-])cc1Cl)c1cc(Cl)ccc1O [Niclosamide] | -30
* C=CC(=O)N1CC/C(=C\c2ccc(F)c([N+](=O)[O-])c2)C(=O)/C(=C/c2ccc(F)c([N+](=O)[O-])c2)C1 | -37.7
* CC(C)c1cnn2c(NCc3ccccc3-n3cccn3)nc(OC3CCCNC3)nc12 (centres undefined) | -36
* Nc1ccn([C@@H]2O[C@H](CO)[C@@H](O)C2(F)F)c(=O)n1 | -49.7

* * *

The entries below come with measured % change in live cells values attached.
System: primary dermal fibroblasts
TEST_DETAILS: % change in live cells vs DMSO control; higher = less cytotoxic
CONDITION_SUMMARY: 0.082305 µM; donor: 4; time (h post treatment): 48
READOUT_NAME: % change in live cells (%)

• CC(=O)O[C@H]1C[C@H](O[C@H]2[C@@H](O)C[C@H](O[C@H]3[C@@H](O)C[C@H](O[C@H]4CC[C@@]5(C)[C@H](CC[C@@H]6[C@@H]5C[C@@H](O)[C@]5(C)[C@@H](C7=CC(=O)OC7)CC[C@]65O)C4)O[C@@H]3C)O[C@@H]2C)O[C@H](C)[C@H]1O[C@@H]1O[C@H](CO)[C@@H](O)[C@H](O)[C@H]1O [Lanatoside C] = -1.33
• COc1ccc(-c2nc(N3CCOCC3)c3sc(CN(C)c4ncc(C(=O)NO)cn4)cc3n2)cn1 [Fimepinostat] = -13

* * *

Test system: HSV-1 K26-GFP infected primary human skin cells
TEST_DETAILS: % change of HSV-1 GFP signal vs untreated infected cells; higher = less antiviral inhibition
CONDITION_SUMMARY: 0.0823 µM; cell type: primary dermal fibroblasts; donor: 5; time (h post infection): 48
READOUT_NAME: % change of HSV-1 GFP signal (%)

• Nc1ccn([C@@H]2O[C@H](CO)[C@@H](O)C2(F)F)c(=O)n1 = -70.4
• CC1(C)CC(=O)c2c(C(F)(F)F)nn(-c3ccc(C(N)=O)c(N[C@H]4CC[C@H](O)CC4)c3)c2C1 = -67.5
• C=CC(=O)N1CC/C(=C\c2ccc(F)c([N+](=O)[O-])c2)C(=O)/C(=C/c2ccc(F)c([N+](=O)[O-])c2)C1 = -8.61
• Cc1cccc(C)c1N(CC(=O)Nc1ccc(-c2ncon2)cc1)C(=O)C1CCS(=O)(=O)CC1 = -42.3
• O=C(/C=C\n1cnc(-c2cc(C(F)(F)F)cc(C(F)(F)F)c2)n1)NNc1ccccn1 [Verdinexor] = -14.8
• Cc1nc(N(C)C(=O)Cc2ccc(-c3ccccn3)cc2)sc1S(N)(=O)=O = -21.8
• O=C(Nc1ccc([N+](=O)[O-])cc1Cl)c1cc(Cl)ccc1O [Niclosamide] = -19.9
• CC(=O)O[C@H]1C[C@H](O[C@H]2[C@@H](O)C[C@H](O[C@H]3[C@@H](O)C[C@H](O[C@H]4CC[C@@]5(C)[C@H](CC[C@@H]6[C@@H]5C[C@@H](O)[C@]5(C)[C@@H](C7=CC(=O)OC7)CC[C@]65O)C4)O[C@@H]3C)O[C@@H]2C)O[C@H](C)[C@H]1O[C@@H]1O[C@H](CO)[C@@H](O)[C@H](O)[C@H]1O [Lanatoside C] = -21.6
• CC(C)c1cnn2c(NCc3ccccc3-n3cccn3)nc(OC3CCCNC3)nc12 (stereo not given) = -17.5
• COc1ccc(-c2nc(N3CCOCC3)c3sc(CN(C)c4ncc(C(=O)NO)cn4)cc3n2)cn1 [Fimepinostat] = -12.3

* * *

System: primary dermal fibroblasts
TEST_DETAILS: % change in live cells vs DMSO control; higher = less cytotoxic
CONDITION_SUMMARY: 0.082305 µM; donor: 3; time (h post treatment): 48
READOUT_NAME: % change in live cells

• CC1(C)CC(=O)c2c(C(F)(F)F)nn(-c3ccc(C(N)=O)c(N[C@H]4CC[C@H](O)CC4)c3)c2C1 = -17.7%
• Cc1cccc(C)c1N(CC(=O)Nc1ccc(-c2ncon2)cc1)C(=O)C1CCS(=O)(=O)CC1 = -6.67%
• CC(C)c1cnn2c(NCc3ccccc3-n3cccn3)nc(OC3CCCNC3)nc12 (stereo not given) = -12.3%
• C=CC(=O)N1CC/C(=C\c2ccc(F)c([N+](=O)[O-])c2)C(=O)/C(=C/c2ccc(F)c([N+](=O)[O-])c2)C1 = -13%
• Nc1ccn([C@@H]2O[C@H](CO)[C@@H](O)C2(F)F)c(=O)n1 = -21.3%
• O=C(/C=C\n1cnc(-c2cc(C(F)(F)F)cc(C(F)(F)F)c2)n1)NNc1ccccn1 [Verdinexor] = -24%
• Cc1nc(N(C)C(=O)Cc2ccc(-c3ccccn3)cc2)sc1S(N)(=O)=O = -10.3%
• CC(=O)O[C@H]1C[C@H](O[C@H]2[C@@H](O)C[C@H](O[C@H]3[C@@H](O)C[C@H](O[C@H]4CC[C@@]5(C)[C@H](CC[C@@H]6[C@@H]5C[C@@H](O)[C@]5(C)[C@@H](C7=CC(=O)OC7)CC[C@]65O)C4)O[C@@H]3C)O[C@@H]2C)O[C@H](C)[C@H]1O[C@@H]1O[C@H](CO)[C@@H](O)[C@H](O)[C@H]1O [Lanatoside C] = -25.7%
• COc1ccc(-c2nc(N3CCOCC3)c3sc(CN(C)c4ncc(C(=O)NO)cn4)cc3n2)cn1 [Fimepinostat] = -29.3%
• O=C(Nc1ccc([N+](=O)[O-])cc1Cl)c1cc(Cl)ccc1O [Niclosamide] = -18.7%

* * *

System: HSV-1 K26-GFP infected primary human skin cells
TEST_DETAILS: % change of HSV-1 GFP signal vs untreated infected cells; higher = less antiviral inhibition
CONDITION_SUMMARY: 0.001 µM; cell type: primary dermal fibroblasts; donor: 3; time (h post infection): 48
READOUT_NAME: % change of HSV-1 GFP signal (%)

- Nc1ccn([C@@H]2O[C@H](CO)[C@@H](O)C2(F)F)c(=O)n1: 2.63
- O=C(/C=C\n1cnc(-c2cc(C(F)(F)F)cc(C(F)(F)F)c2)n1)NNc1ccccn1 [Verdinexor]: 2.8
- Cc1cccc(C)c1N(CC(=O)Nc1ccc(-c2ncon2)cc1)C(=O)C1CCS(=O)(=O)CC1: -1.82
- CC1(C)CC(=O)c2c(C(F)(F)F)nn(-c3ccc(C(N)=O)c(N[C@H]4CC[C@H](O)CC4)c3)c2C1: 3.58
- Cc1nc(N(C)C(=O)Cc2ccc(-c3ccccn3)cc2)sc1S(N)(=O)=O: 4.72

* * *

Tested on: HSV-1 K26-GFP infected primary human skin cells
TEST_DETAILS: % change of HSV-1 GFP signal vs untreated infected cells; higher = less antiviral inhibition
CONDITION_SUMMARY: 0.0274 µM; cell type: primary keratinocytes; donor: 3; time (h post infection): 20
READOUT_NAME: % change of HSV-1 GFP signal (%)

• Cc1cccc(C)c1N(CC(=O)Nc1ccc(-c2ncon2)cc1)C(=O)C1CCS(=O)(=O)CC1 = 0.743
• O=C(/C=C\n1cnc(-c2cc(C(F)(F)F)cc(C(F)(F)F)c2)n1)NNc1ccccn1 [Verdinexor] = 2.9
• Cc1nc(N(C)C(=O)Cc2ccc(-c3ccccn3)cc2)sc1S(N)(=O)=O = 0.771
• C=CC(=O)N1CC/C(=C\c2ccc(F)c([N+](=O)[O-])c2)C(=O)/C(=C/c2ccc(F)c([N+](=O)[O-])c2)C1 = 21.4
• O=C(Nc1ccc([N+](=O)[O-])cc1Cl)c1cc(Cl)ccc1O [Niclosamide] = 6.19
• CC(=O)O[C@H]1C[C@H](O[C@H]2[C@@H](O)C[C@H](O[C@H]3[C@@H](O)C[C@H](O[C@H]4CC[C@@]5(C)[C@H](CC[C@@H]6[C@@H]5C[C@@H](O)[C@]5(C)[C@@H](C7=CC(=O)OC7)CC[C@]65O)C4)O[C@@H]3C)O[C@@H]2C)O[C@H](C)[C@H]1O[C@@H]1O[C@H](CO)[C@@H](O)[C@H](O)[C@H]1O [Lanatoside C] = 7.86

* * *

Tested on: HSV-1 K26-GFP infected 3D skin equivalent
TEST_DETAILS: % activity on HSV-1 GFP signal (0 = infected DMSO control, -100 = uninfected control); higher = higher signal (negative = inhibition / toxicity)
CONDITION_SUMMARY: 0.041152 µM; time (h post infection): 48; model: submerged
READOUT_NAME: % activity on HSV-1 GFP signal (%)

* COc1ccc(-c2nc(N3CCOCC3)c3sc(CN(C)c4ncc(C(=O)NO)cn4)cc3n2)cn1 [Fimepinostat] | 2.37
* Cc1nc(N(C)C(=O)Cc2ccc(-c3ccccn3)cc2)sc1S(N)(=O)=O | -6.28
* C=CC(=O)N1CC/C(=C\c2ccc(F)c([N+](=O)[O-])c2)C(=O)/C(=C/c2ccc(F)c([N+](=O)[O-])c2)C1 | -7.34
* CC(=O)O[C@H]1C[C@H](O[C@H]2[C@@H](O)C[C@H](O[C@H]3[C@@H](O)C[C@H](O[C@H]4CC[C@@]5(C)[C@H](CC[C@@H]6[C@@H]5C[C@@H](O)[C@]5(C)[C@@H](C7=CC(=O)OC7)CC[C@]65O)C4)O[C@@H]3C)O[C@@H]2C)O[C@H](C)[C@H]1O[C@@H]1O[C@H](CO)[C@@H](O)[C@H](O)[C@H]1O [Lanatoside C] | -5.47
* O=C(/C=C\n1cnc(-c2cc(C(F)(F)F)cc(C(F)(F)F)c2)n1)NNc1ccccn1 [Verdinexor] | -2.17
* O=C(Nc1ccc([N+](=O)[O-])cc1Cl)c1cc(Cl)ccc1O [Niclosamide] | -3.85
* Nc1ccn([C@@H]2O[C@H](CO)[C@@H](O)C2(F)F)c(=O)n1 | -9.74
* CC1(C)CC(=O)c2c(C(F)(F)F)nn(-c3ccc(C(N)=O)c(N[C@H]4CC[C@H](O)CC4)c3)c2C1 | -58.7
* CC(C)c1cnn2c(NCc3ccccc3-n3cccn3)nc(OC3CCCNC3)nc12 (stereo not given) | -10.7
* Cc1cccc(C)c1N(CC(=O)Nc1ccc(-c2ncon2)cc1)C(=O)C1CCS(=O)(=O)CC1 | 2.22
